These data points were gathered from patent US20240360178A1.

Could you please report measured IC50 for the items listed next?
Target: human PD-1 (Jurkat-PD-1 cells) / PE-labeled human PD-L1-Ig (Homo sapiens)
Construct: expressed in transfected cells; host or cells: Jurkat cell line over-expressing human PD-1
Sequence (Q15116 25-288): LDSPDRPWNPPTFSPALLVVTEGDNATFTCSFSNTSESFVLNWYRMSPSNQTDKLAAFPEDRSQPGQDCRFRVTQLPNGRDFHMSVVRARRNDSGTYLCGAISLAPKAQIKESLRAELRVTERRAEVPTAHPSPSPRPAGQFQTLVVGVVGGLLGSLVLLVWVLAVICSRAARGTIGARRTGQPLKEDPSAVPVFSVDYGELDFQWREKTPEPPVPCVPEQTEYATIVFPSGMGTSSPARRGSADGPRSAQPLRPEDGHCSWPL
Assay: Jurkat-PD-1 Cell Binding High-Content Screening Assay (CBA); Jurkat hPD1-PDL1 assay
Conditions: Jurkat cell line over-expressing human PD-1; PE-labeled PD-L1-Ig 20 nM final; compound incubated 2 hours at 37° C.; read-out: Jurkat HPD1-PDL1 IC50
Positions of bridges follow the written chain, without caps; N, C: chain ends. Non-standard residues stand in square brackets, D forms with d. Residues, ends and D or L forms follow the SMILES beside them. ξ: configuration not given here. Phe(3-CF3) = N[C@@H](Cc1cccc(C(F)(F)F)c1)C(=O)O; Bip = N[C@@H](Cc1ccc(-c2ccccc2)cc1)C(=O)O; NMeF = CN[C@@H](Cc1ccccc1)C(=O)O; NMeA = CN[C@@H](C)C(=O)O; Orn = NCCC[C@H](N)C(=O)O; Dap = NC[C@H](N)C(=O)O; ξP = O=C(O)C1CCCN1; Sar = CNCC(=O)O
# value in nM; strip the unit string

So what IC50 did CC(C)C[C@@H]1NC(=O)[C@H](CCCNC(=N)N)NC(=O)C2CCCN2C(=O)[C@H](C)N(C)C(=O)[C@H](CCCNC(=N)N)NC(=O)[C@H](Cc2ccc(-c3ccccc3)cc2)NC(=O)[C@H](C(C)C)NC(=O)[C@H](Cc2c[nH]c3ccccc23)NC(=O)[C@H](CC(=O)O)NC(=O)[C@H](Cc2ccc(O)cc2)NC(=O)[C@H](Cc2ccccc2)NC(=O)CSC[C@@H](C(=O)NCC(N)=O)NC(=O)[C@H](CO)NC(=O)[C@H](C(C)C)NC1=O (stereo partly shown) [Example 1282] ({CH2CO}-FYDWV[Bip]R[NMeA][ξP]RLVSCG-NH2; thioether N-14) get with human PD-1 (Jurkat-PD-1 cells) / PE-labeled human PD-L1-Ig (Homo sapiens)?
290

Can you handle CC(C)C[C@@H]1NC(=O)[C@H](Cc2cccc(C(F)(F)F)c2)NC(=O)[C@H](CC(=O)O)NC(=O)[C@H](Cc2ccc(O)cc2)NC(=O)[C@H](Cc2ccccc2)NC(=O)CSC[C@@H](C(=O)N[C@@H](C)C(N)=O)NC(=O)[C@H](CO)NC(=O)[C@H](C(C)C)NC(=O)[C@H](CC(C)C)NC(=O)[C@H](CC(N)=O)NC(=O)CN(C)C(=O)[C@H](C)N(C)C(=O)[C@H](C(C)C)NC(=O)[C@H](Cc2ccc(-c3ccccc3)cc2)NC1=O [Example 1081] ({CH2CO}-FYD[Phe(3-CF3)]L[Bip]V[NMeA][Sar]NLVSCA-NH2; thioether N-14) next?
230

Now consider CC(C)C[C@@H]1NC(=O)[C@H](CCCNC(=N)N)NC(=O)[C@H](Cc2ccccc2)N(C)C(=O)[C@H](C)N(C)C(=O)[C@H](CCCNC(=N)N)NC(=O)[C@H](Cc2ccc(-c3ccccc3)cc2)NC(=O)[C@H](C(C)C)NC(=O)[C@H](Cc2c[nH]c3ccccc23)NC(=O)[C@H](CC(=O)O)NC(=O)[C@H](Cc2ccc(O)cc2)NC(=O)[C@H](Cc2ccccc2)NC(=O)CSC[C@@H](C(=O)NCC(N)=O)NC(=O)[C@H](CCCN)NC(=O)[C@H](C(C)C)NC1=O [Example 1338] ({CH2CO}-FYDWV[Bip]R[NMeA][NMeF]RLV[Orn]CG-NH2; thioether N-14) and answer again.
110

Follow-up entry: CC(C)C[C@@H]1NC(=O)[C@H](Cc2c[nH]c3ccccc23)NC(=O)[C@H](CC(=O)O)NC(=O)[C@H](Cc2ccc(O)cc2)NC(=O)[C@H](CN)NC(=O)CSC[C@@H](C(=O)N[C@@H](C)C(N)=O)NC(=O)[C@H](CO)NC(=O)[C@H](C(C)C)NC(=O)[C@H](CC(C)C)NC(=O)[C@H](CC(N)=O)NC(=O)[C@H]2CCCN2C(=O)[C@H](C)N(C)C(=O)[C@H](C(C)C)NC(=O)[C@H](Cc2ccc(-c3ccccc3)cc2)NC1=O [Example 1394] ({CH2CO}-[Dap]YDWL[Bip]V[NMeA][dP]NLVSCA-NH2; thioether N-14)
90
